A collection of molecules and their measured P388/ADR optimal dose
system: P388/ADR; test: In vivo activity against P388/adriamycin-resistant leukemia; parameters: species or system BDF1 mice; settings: ip, days 1, 5 and 9
Property measured: P388/ADR optimal dose (mg/kg)

{"Molecule": "COc1cccc2c1C(=O)c1c(O)c3c(c(O)c1C2=O)C[C@@](O)(C(=O)CO)C[C@@H]3O[C@H]1C[C@H](N)[C@H](O)[C@H](C)O1 [adriamycin, reference compound]", "Reported": 3.5}
{"Molecule": "Cc1c2oc3c(C)c(O)c(N)c(C(=O)NC4C(=O)NC(C(C)C)C(=O)N5CCCC5C(=O)N(C)CC(=O)N(C)C(C(C)C)C(=O)OC4C)c3nc-2c(C(=O)NC2C(=O)NC(C(C)C)C(=O)N3CCCC3C(=O)N(C)CC(=O)N(C)C(C(C)C)C(=O)OC2C)c(N)c1=O (centres unmarked) [4a, 7-Hydroxy-8-amino-actinomycin D]", "Reported": 1.2}

====

Parameter P388/S tumor-free survivors/total on day 60: see the listing below.
test system: P388/S; assay: In vivo activity against P388/S (adriamycin sensitive) leukemia, Table VII; set-up: species or system BDF1 mice; settings: at optimal dose
*1 amine or outer side, *2 acyl side, *3 side chain or, on linkers, in order; H or OH if unused. Where a SMILES comes first, the peptide text is derived from it. Bridges are numbered along the chain shown (N, C = ends). Roman numbers before positions name the chains, in order. [ ]: non-standard residue; d: D form. Actinocin(9to1) = Cc1c2oc3c(C)ccc(C(=O)[*:1])c3nc-2c(C(=O)[*:2])c(N)c1=O; NMeV = CN[C@H](C(=O)O)C(C)C; Sar = CNCC(=O)O
Property measured: P388/S tumor-free survivors/total on day 60

{"Compound": "Cc1c2oc3c(C)c4oc(-c5ccccc5)nc4c(C(=O)NC4C(=O)NC(C(C)C)C(=O)N5CCCC5C(=O)N(C)CC(=O)N(C)C(C(C)C)C(=O)OC4C)c3nc-2c(C(=O)NC2C(=O)NC(C(C)C)C(=O)N3CCCC3C(=O)N(C)CC(=O)N(C)C(C(C)C)C(=O)OC2C)c(N)c1=O (centres unmarked)", "Reported": "4/8"}
{"Compound": "Cc1c2oc3c(C)c4oc(-c5ccccc5)nc4c(C(=O)NC4C(=O)NC(C(C)C)C(=O)N5CCCC5C(=O)N(C)CC(=O)N(C)C(C(C)C)C(=O)OC4C)c3nc-2c(C(=O)NC2C(=O)NC(C(C)C)C(=O)N3CCCC3C(=O)N(C)CC(=O)N(C)C(C(C)C)C(=O)OC2C)cc1=O (centres unmarked) [10a, 2-Phenyl-AMD--OZL]", "Reported": "2/8"}
{"Compound": "CO[C@@]12[C@H](COC(N)=O)C3=C(C(=O)C(C)=C(N)C3=O)N1C[C@@H]1N[C@@H]12 [mitomycin C, reference compound]", "Reported": "1/8"}
{"Compound": "Cc1c2oc3c(C)ccc(C(=O)N[C@@H]4C(=O)N[C@H](C(C)C)C(=O)N5CCC[C@H]5C(=O)N(C)CC(=O)N(C)[C@@H](C(C)C)C(=O)O[C@@H]4C)c3nc-2c(C(=O)N[C@@H]2C(=O)N[C@H](C(C)C)C(=O)N3CCC[C@H]3C(=O)N(C)CC(=O)N(C)[C@@H](C(C)C)C(=O)O[C@@H]2C)c(N)c1=O [AMD, Actinomycin D] (I: T[dV]P[Sar][NMeV] / II: T[dV]P[Sar][NMeV]; ester I:1-I:C, II:1-II:C; linker I:N-II:N via Actinocin(9to1))", "Reported": "1/8"}
{"Compound": "Cc1c2oc3c(C)c(O)c(N)c(C(=O)NC4C(=O)NC(C(C)C)C(=O)N5CCCC5C(=O)N(C)CC(=O)N(C)C(C(C)C)C(=O)OC4C)c3nc-2c(C(=O)NC2C(=O)NC(C(C)C)C(=O)N3CCCC3C(=O)N(C)CC(=O)N(C)C(C(C)C)C(=O)OC2C)c(N)c1=O (centres unmarked) [4a, 7-Hydroxy-8-amino-actinomycin D]", "Reported": "4/8"}
